System tested: PKA catalytic subunit (Homo sapiens, UniProt P17612)
Experimental protocol: PKA-catalyzed phosphorylation of peptide/peptidomimetic substrates, [γ-32P]ATP, phosphocellulose paper binding
Type: biochemical
Experimental parameters: ATP 100 μM, 30°C, 50 mM TRIS/HCl, pH 7; Michaelis-Menten fit; value is kcat multiplied by 10^2
Assign YES whenever 10^2 kcat does not fall below 20 μmole mg^-1 s^-1; assign NO whenever it does.

Some entries whose results are on file:
RRASVA [IV, RRASVA analog with one N^β-Me-aza-β^3-amino acid residue; likely Val] : NO
RRASVA [III, RRASVA analog with one N^β-Me-aza-β^3-amino acid residue; likely Ala at position -1] : NO
RRASVA [I, RRASVA analog with one N^β-Me-aza-β^3-amino acid residue; likely the N-terminal Arg] : YES
RRASVA [II, RRASVA analog with one N^β-Me-aza-β^3-amino acid residue; likely the second Arg] : NO

Here's the next entry for you.
Please indicate if the recorded 10^2 kcat for RRASVA [RRASVA analog with one N^β-Me-aza-β^3-amino acid residue; likely the C-terminal Ala] meets or exceeds 20 μmole mg^-1 s^-1.
NO

====

System tested: PKA catalytic subunit (Homo sapiens, UniProt P17612)
Experimental protocol: PKA-catalyzed phosphorylation of peptide/peptidomimetic substrates, [γ-32P]ATP, phosphocellulose paper binding
Type: biochemical
Experimental parameters: substrate phosphorylation by PKA catalytic subunit; ATP 100 μM, 30°C, 50 mM TRIS/HCl, pH 7; Michaelis-Menten fit of initial velocities; substrate concentration varied
Readout: Km
Please report the result as a number followed by the unit.

Consider the following illustrative entries.
RRASVA [II, RRASVA analog with one N^β-Me-aza-β^3-amino acid residue; likely the second Arg] : 79 µM
RRASVA [III, RRASVA analog with one N^β-Me-aza-β^3-amino acid residue; likely Ala at position -1] : 91 µM
RRASVA [IV, RRASVA analog with one N^β-Me-aza-β^3-amino acid residue; likely Val] : 118 µM

For each of the substances below, note its Km.
1. RRASVA [I, RRASVA analog with one N^β-Me-aza-β^3-amino acid residue; likely the N-terminal Arg]
2. RRASVA [RRASVA analog with one N^β-Me-aza-β^3-amino acid residue; likely the C-terminal Ala]

209 µM
57 µM

====

Consider the following substances; for each one, report its 10^2 kII (second order rate constant).
System tested: PKA catalytic subunit (Homo sapiens)
Experimental protocol: PKA-catalyzed phosphorylation of peptide/peptidomimetic substrates, [γ-32P]ATP, phosphocellulose paper binding
Type: biochemical
Experimental parameters: ATP 100 μM, 30°C, 50 mM TRIS/HCl, pH 7; from the initial linear part of the Michaelis-Menten plot; value is kII multiplied by 10^2
One number for each entry, in L mg^-1 s^-1.

Consider the following illustrative entries.
RRASVA [IV, RRASVA analog with one N^β-Me-aza-β^3-amino acid residue; likely Val] : 0.12
RRASVA [I, RRASVA analog with one N^β-Me-aza-β^3-amino acid residue; likely the N-terminal Arg] : 0.098

For each of the substances below, note its 10^2 kII (second order rate constant).
1. RRASVA [II, RRASVA analog with one N^β-Me-aza-β^3-amino acid residue; likely the second Arg]
2. RRASVA [III, RRASVA analog with one N^β-Me-aza-β^3-amino acid residue; likely Ala at position -1]
3. RRASVA [RRASVA analog with one N^β-Me-aza-β^3-amino acid residue; likely the C-terminal Ala]

1. 0.11
2. 0.034
3. 0.090

// data source = paper PMC3305904
